system: SF-268 CNS; experiment: NCI-60 one-dose screen, 48 h; settings: 10 µM unless noted
This is part of a sample that, as a whole, favours compounds with a hit. Of some 83,000 tested, about 20% had one in any assay. Calls of active or inactive are those of the source. How the source made its calls: active means growth percent below 10; inactive means the rest.
Could you please pick one outcome from this set? class 1 for active, class 0 for inactive

# outcome recorded in this test, key = `O=C(c1ccc(O)cc1)[C@@H]1CN[C@@]2(C(=O)Nc3ccccc32)[C@H]1c1ccc(F)cc1`
class 0

# outcome recorded in this test, key = `Cn1cc(CNc2nc3ccc(OC/C(=C/F)CN)cc3o2)ccc1=O`
class 0

# outcome recorded in this test, key = CCO/C=N/C1=C(C#N)C(c2ccc(Cl)cc2)c2sc3c(CC)cccc3c2O1 (stereo not given)
class 0

# outcome recorded in this test, key = `CCc1cccc(NC(=O)CNc2cc(S(=O)(=O)N(C)C)cc(C)c2C)c1`
class 0

# outcome recorded in this test, key = `Cc1cc2ncc(-c3cc4ccccc4c(N4CCN(C)CC4)n3)nc2cc1C`
class 0

# outcome recorded in this test, key = O=C1Nc2ccccc2/C1=C/c1ccc(COCC2CO2)n1-c1ccc(O)cc1 (stereo not given)
class 0

---

system: SK-MEL-2 melanoma; assay: NCI-60 one-dose screen, 48 h (100 = growth as untreated, 0 = no growth, -100 = all killed); settings: 10 µM unless noted
The panel holds about 83,000 compounds, 20% with a hit somewhere; the sample as a whole holds those more often.
# note: boundary value 70% maps to label 0; growth below it maps to label 1

{"molecule": "COc1ccc(Oc2ccc(/C=N/NC(=O)CSc3nc4ccccc4c(=O)n3-c3ccc(Cl)cc3)cc2)cc1", "assigned_label": "label 0"}
{"molecule": "CNC(=O)c1cc(N2CCc3cc(NC(=O)Nc4ccc(Cl)c(C(F)(F)F)c4)ccc32)ccn1", "assigned_label": "label 0"}
{"molecule": "Brc1ccccc1/C=N/Nc1nc(N/N=C/c2ccccc2Br)nc(N2CCOCC2)n1", "assigned_label": "label 0"}
{"molecule": "Oc1cccc2ccc(-c3nnc(SCc4ccc(O)c5ncccc45)n3-c3ccccc3)nc12", "assigned_label": "label 1"}

Hello, I'm reviewing records and need to know if growth of CNC1CCc2c(sc(NC(=O)c3ccc(C(C)(C)C)cc3)c2C(N)=O)C1 (centres undefined) is below 70%. Could you check?
label 0

Hello, I'm reviewing records and need to know if growth of `C=CCn1c(SCC(=O)Nc2ccc(C(=O)/C=C/c3cccc([N+](=O)[O-])c3)cc2)nnc1-c1c[nH]c2ccccc12` is below 70%. Could you check?
label 0

Hello, I'm reviewing records and need to know if growth of `O=S(=O)(NCCNc1nccc(-n2cnc3ccccc32)n1)c1ccc(Br)cc1` is below 70%. Could you check?
label 0

Hello, I'm reviewing records and need to know if growth of `O=S(=O)(NCCNc1nccc(-n2cnc3ccccc32)n1)c1ccc(C(F)(F)F)cc1` is below 70%. Could you check?
label 1

---

test system: A498 renal; experiment: NCI-60 one-dose screen, 48 h; details: 10 µM unless noted
This is part of a sample that, as a whole, favours compounds with a hit. Of some 83,000 tested, about 20% had one in any assay. Active and inactive are the calls of the source. Rule for the calls: active = growth percent below 10; inactive = the rest.
Could you please pick one outcome from this set? True (active), False (inactive)

Recorded results for 6 compounds are shown here.
{"compound": "O=C(O)c1ccc(-n2cc(CNc3cccc(Cl)c3)c(-c3ccc(F)cc3)n2)cc1", "assay_target": "A498 renal", "assigned_label": "False"}
{"compound": "CN1CCN(Cc2ccc(NC(=O)c3cncc(C#Cc4cnc5ccc(OCC(C)(C)O)nn45)c3)cc2C(F)(F)F)CC1", "assay_target": "A498 renal", "assigned_label": "True"}
{"compound": "CC(=O)c1nnn(-c2c(C(=O)n3nc(C)cc3C)sc(=S)n2-c2ccccc2)c1C", "assay_target": "A498 renal", "assigned_label": "False"}
{"compound": "O=c1c2ccccc2nc(COc2ccccc2)n1NS(=O)(=O)c1ccc(Cl)cc1", "assay_target": "A498 renal", "assigned_label": "False"}
{"compound": "CCOc1ccccc1NC1=C(Cl)C(=O)c2nc(C)ccc2C1=O", "assay_target": "A498 renal", "assigned_label": "False"}
{"compound": "Nc1ncc(-c2ccc(NS(=O)(=O)c3ccc(Cl)c(Cl)c3)cc2)[nH]1", "assay_target": "A498 renal", "assigned_label": "False"}

# outcome recorded in this test, key = CCO/C=N/C1=C(C#N)C(c2ccc(Cl)cc2)c2sc3c(CC)cccc3c2O1 (stereo not given)
True

# outcome recorded in this test, key = `CCN(CC)c1cn(-c2ccc(S(N)(=O)=O)cc2)nn1`
False

# outcome recorded in this test, key = COC(=O)/C=C/c1c(C2(C)NC(=O)c3ccccc3N2)c(=O)oc2ccc(Cl)cc12 (stereo not given)
False

# outcome recorded in this test, key = CCCn1cnc2c(c1=N)C(c1ccc(F)cc1)c1sc3c(C)cccc3c1O2 (stereo not given)
True

# outcome recorded in this test, key = `O=C(Nc1nonc1-c1ccccc1)c1ccc(C(F)(F)F)cc1`
False

# outcome recorded in this test, key = `CS(=O)(=O)c1ccc(-c2nn(-c3ccccc3)cc2/C=N/NC(=O)c2nc(N)n[nH]2)cc1`
False

# outcome recorded in this test, key = `COc1ccc(NC(=O)CSc2nnc(-c3ccc4nc(-c5ccc(OC)c(OC)c5)[nH]c4c3)o2)cc1OC`
False
